System: HT29 colon
protocol: NCI tumour cell line growth inhibition, 48 h
Below, each entry is listed with its recorded TGI.

Observe how each entry below is paired with its result.
Entry under review: COc1ccc(-c2c(C#N)c(N)nc3c2CCS(=O)(=O)c2ccccc2-3)cc1 . Reported TGI? > 100 µM

Entry under review: CC(C)(C)[Si](C)(C)OCC1OC(n2cnc3c(N)ncnc32)C(O[Si](C)(C)C(C)(C)C)C1O[Si](C)(C)C(C)(C)C (stereo not drawn) . Reported TGI? > 100 µM

Next:
Entry under review: CC1(C)CNC(=O)C2(C=NC(C)(C)CNC(=O)C3(C=N1)CCCO3)CCCO2 (stereo not drawn) . Reported TGI? > 10 µM

Entry under review: CCOc1cc2c(Cl)ncnc2c(OCC)c1OCC . Reported TGI? 32.9 µM

Entry under review: O=C1C(Cl)N(c2ccccc2[N+](=O)[O-])C1c1c[nH]c2ccccc12 (stereo not drawn) . Reported TGI? > 100 µM

Entry under review: COc1ccc(-c2cc(=O)c3ccc(O)cc3o2)cc1OC . Reported TGI? > 100 µM

Entry under review: Brc1cc2nn(-c3ccccc3)nc2c2nonc12 . Reported TGI? > 100 µM

Entry under review: N#Cc1cc([N+](=O)[O-])ccc1NC(=O)C(=O)Nc1n[nH]c(N)n1 . Reported TGI? > 100 µM

* * *

Test system: SNB-19 CNS
protocol: NCI tumour cell line growth inhibition, 48 h
Below, each entry is listed with its recorded TGI.

Observe how each entry below is paired with its result.
Entry under review: CN(C)CCn1c(=O)c2ccc(NCCCN(C)CCCNc3ccc4c(=O)n(CCN(C)C)c(=O)n5c6ccc([N+](=O)[O-])cc6c(=O)c3c45)c3c(=O)c4cc([N+](=O)[O-])ccc4n(c1=O)c23 . Reported TGI? 0.193 µM

Entry under review: Oc1ccc(NCc2nc3ccccc3[nH]2)cc1 . Reported TGI? > 100 µM

Next:
Entry under review: COc1ccc2cc(NC(=O)N/N=C\c3ccc(Cl)cc3)ccc2c1 . Reported TGI? > 100 µM

Entry under review: Nc1nc(Cl)c2ncn(Cc3ccc(C45CC6CC(CC(C6)C4)C5)c(O)c3)c2n1 . Reported TGI? 22.8 µM

Entry under review: O=c1[nH]ncc(Br)c1Br . Reported TGI? 18.9 µM

Entry under review: NC(CCC(=O)NC(CSSCCCCS(=O)O)C(=O)NCC(=O)O)C(=O)O (stereo unspecified) . Reported TGI? > 100 µM

* * *

Tested on: KM20L2 colon
Please reply with one of these outcomes: TRUE = active, FALSE = inactive

Use the examples below as a reference point.
For [Cl-].[Dy+3].[O-]/N=C(\c1ccccc1)c1ccccn1.[O-]/N=C(\c1ccccc1)c1ccccn1.[O-]/N=C(\c1ccccc1)c1ccccn1 , what call appears in the results of this test? FALSE

For CCc1ccc(/C=C\c2cc(OC)c(OC)c(OC)c2)cc1 , what call appears in the results of this test? TRUE

For CCC[CH2][Sn]1([CH2]CCC)[O]Cc2nc(C)ccc2[O]1 , what call appears in the results of this test? FALSE

For CCC[CH2][Sn]([CH2]CCC)([O]C(=O)c1cccnc1SC)[O]C(=O)c1cccnc1SC , what call appears in the results of this test? FALSE

Next compound, please.
For OCC(O)CC[CH2][Sn]([Br])([c]1ccccc1)[c]1ccccc1 (stereo not given) , what call appears in the results of this test? FALSE

* * *

Test system: TK-10 renal
protocol: NCI tumour cell line growth inhibition, 48 h
measured.parameter: GI50

Observe how each entry below is paired with its result.
Entry under review: CCCn1cnc2c(SCc3ccccc3Cl)nc(N)nc21 . Reported GI50? 14.5 µM

Entry under review: C=C1C(=O)O[C@H]2[C@H]1CC/C(COC(=O)c1ccc3ccccc3c1)=C\CC[C@@]1(C)O[C@@H]21 . Reported GI50? 1.52 µM

Entry under review: N#Cc1c(-c2ccc(F)cc2)nc(N/N=C/c2c[nH]c3ccccc23)nc1N1CCOCC1 . Reported GI50? 15.5 µM

Next:
Entry under review: CC[C@]1(O)C[C@@H]2CN(CCc3c([nH]c4ccccc34)[C@@](C(=O)OC)(c3cc4c(cc3OC)N(C)[C@H]3[C@@](O)(C(=O)OC)[C@H](OC(C)=O)[C@]5(CC)C=CCN6CC[C@]43[C@@H]65)C2)C1 . Reported GI50? 6.02 µM

* * *

Test system: A549 NSCLC
protocol: NCI tumour cell line growth inhibition, 48 h
measured.parameter: TGI

Observe how each entry below is paired with its result.
Entry under review: Cc1cc2[nH]c3c(C#N)c4c(c(=O)n3c2cc1C)CCCC4 . Reported TGI? > 100 µM

Entry under review: Brc1ccc2c(-c3csc(-c4c[nH]c5cc(Br)ccc45)n3)c[nH]c2c1 . Reported TGI? > 50.7 µM

Entry under review: OCC(O)CC[CH2][Sn]([Br])([c]1ccccc1)[c]1ccccc1 (centres undefined) . Reported TGI? > 100 µM

We now examine a further compound.
Entry under review: CC(C)(C)c1cc(/C=C(\C#N)C(=O)NCCO)cc(C(C)(C)C)c1O . Reported TGI? > 100 µM

* * *

Below, each entry is listed with its recorded TGI.
Tested on: COLO 205 colon
protocol: NCI tumour cell line growth inhibition, 48 h
Where a SMILES comes first, the peptide text is derived from it. The star is where a group is joined. Cbz = O=C(OCc1ccccc1)*; NHNH2 = NN*

Report TGI for O=C(Nc1cccc(O)c1)C(=O)C(C(=O)c1ccccc1F)C1OC(=O)c2ccccc21 (stereo not drawn) tested on COLO 205 colon. 48.3 µM

Next:
Report TGI for COC(=O)CC(NC(=O)OCc1ccccc1)C(=O)NC(CC(=O)OC)C(=O)NC(CC(=O)OC)C(=O)NC(CC(=O)OC)C(=O)NC(CC(=O)OC)C(=O)NC(CC(=O)OC)C(=O)NN (stereo not drawn) (Cbz-D(OMe)D(OMe)D(OMe)D(OMe)D(OMe)D(OMe)-NHNH2; configuration not given here) tested on COLO 205 colon. > 100 µM

Report TGI for COc1cc([N+](=O)[O-])cc2c3c(n(C)c12)[C@@]1(C)CCC2c4ccc(OCc5ccccc5)cc4CCC2C1C3 (stereo partly drawn) tested on COLO 205 colon. > 100 µM

* * *

Tested on: MOLT-4 leukemia
protocol: NCI tumour cell line growth inhibition, 48 h
Below, each entry is listed with its recorded TGI.

Entry under review: C=CC(=O)N1CC2(CCN(c3nc(OC4CCN(CCCOC)CC4)nc4c(OCC(F)(F)F)c(-c5c(C)ccc6[nH]ncc56)c(C5CC5)cc34)CC2)C1 . Reported TGI? 6.06 µM

Entry under review: CC(=O)OC[C@]1(C)C=C2C(=O)[C@](C)(O)C3(CC3)C(C)=C2[C@H]1O . Reported TGI? > 100 µM

Entry under review: CCOC(=O)[C]1([Bi]([CH3])[CH3])N=NC(C(=O)OC)=C1C(=O)OC (configuration not stated) . Reported TGI? 63.9 µM

Entry under review: CC1(C)CNC(=O)C2(C=NC(C)(C)CNC(=O)C3(C=N1)CCCO3)CCCO2 (configuration not stated) . Reported TGI? > 10 µM

Next:
Entry under review: O=C(Nc1cccc(O)c1)C(=O)C(C(=O)c1ccccc1F)C1OC(=O)c2ccccc21 (configuration not stated) . Reported TGI? > 100 µM

Entry under review: Brc1cccc(N=NN2CCCC2)c1 . Reported TGI? > 100 µM

Entry under review: COC1/C=C\C=C(/C)C(=O)NC2=CC(=O)C(=O)C(=C2O)CC(C)CC(OC)C(O)C(C)/C=C(\C)C1OC(N)=O (configuration not stated) . Reported TGI? > 52.3 µM

* * *

Below, each entry is listed with its recorded TGI.
Tested on: HL-60(TB) leukemia
protocol: NCI tumour cell line growth inhibition, 48 h

Entry under review: CS(=O)(=O)c1ccc([C@H]2O[C@@H](CO)C[C@]2(O)c2ccc(S(C)(=O)=O)cc2)cc1 . Reported TGI? > 100 µM

Entry under review: CCOC(=O)[C]1([Bi]([CH3])[CH3])N=NC(C(=O)OC)=C1C(=O)OC (stereo unspecified) . Reported TGI? 52.1 µM

Entry under review: COCC1OC(N2C(=O)NC(=O)[C@@H]3C=C4CCCCC4=C[C@@H]32)C(OC)C1OC (stereo partly specified) . Reported TGI? > 100 µM

Entry under review: N#Cc1c(-c2ccc(F)cc2)nc(N/N=C/c2c[nH]c3ccccc23)nc1N1CCOCC1 . Reported TGI? 7.57 µM

Next:
Entry under review: Cc1cc2ncc3c(=O)n(NS(=O)(=O)c4ccc(N)cc4)ccc3n2n1 . Reported TGI? > 100 µM

Entry under review: COc1ccc(-c2cc(=O)c3ccc(O)cc3o2)cc1OC . Reported TGI? > 100 µM

Entry under review: C=CCOCCCCC(C(C)=O)C(=O)OC (stereo unspecified) . Reported TGI? > 100 µM
